// AC50 lookup, one value per entry
- SYSTEM_NAME: human PAH with the R408W mutation (Homo sapiens, UniProt P00439, R408W)
- Construct: expressed in transfected cells
- METHOD_NOTES: Cell Based Phenylalanine Flux Assay
- EXPERIMENTAL_CONDITIONS: A375 cells expressing R408W PAH; 24 hrs with compound, then 20 µM sepiapterin and 800 µM 13C9,15N-Phenylalanine for 4 hours; 13C-Tyrosine by LC-MS; average where tested multiple times; read-out: AC50

Nc1cnc(N2CCc3[nH]cnc3C2c2cc3ccccn3n2)nc1 (centres unmarked) ... > 5 µM
Cc1c(C2c3nc[nH]c3CCN2C(=O)c2nnc(-c3ccn(C)n3)o2)nn2ccccc12 (centres unmarked) ... 1 to 5 µM
Fc1ncccc1-c1nnc(N2CCc3[nH]cnc3C2c2cc3c(C(F)(F)F)cccn3n2)o1 (centres unmarked) ... 1 to 5 µM
CC(C)c1nnc(C(=O)N2CCc3[nH]cnc3[C@@H]2c2cc3cccc(C(F)(F)F)n3n2)o1 (single isomer, unassigned) ... 1 to 5 µM
Cc1cccn2nc(C3c4nc[nH]c4CCN3c3nnc(N4CCOCC4)o3)cc12 (centres unmarked) ... 1 to 5 µM

Incoming: Fill blank: measured AC50 of the molecule O=C(c1nnc(C2CC(F)(F)C2)o1)N1CCc2[nH]cnc2C1c1cc2cccc(Cl)n2n1 (centres unmarked) is ____.
Outgoing: 1 to 5 µM

Incoming: I have this molecule here, c1ccn2nc([C@H]3NCCc4ncn(-c5nnc(C6CC6)o5)c43)cc2c1 (single isomer, unassigned) , and I need its recorded AC50.
Outgoing: 1 to 5 µM

Incoming: I'd like to know its AC50. The molecule in question is c1cncc(-c2nnc(N3CCc4[nH]cnc4C3c3cc4c(C5CC5)cccn4n3)o2)c1 (centres unmarked)
Outgoing: 1 to 5 µM

Incoming: Recorded AC50 for Cc1nc(C(C)O)oc1C(=O)N1CCc2[nH]cnc2C1c1cc2ccccn2n1 [4S enantiomer of (1S)-1-14-methyl-5-[4-{pyrazolo[1,5-a]pyrid] , please?
Outgoing: 1 to 5 µM

Incoming: So what's the measured AC50 for this one? Cc1cccn2nc(C3c4nc[nH]c4CCN3C(=O)c3cnn4cc(N5CCOCC5)ccc34)cc12 (centres unmarked)
Outgoing: 1 to 5 µM

----------
- SYSTEM_NAME: human PAH with the R408W mutation (Homo sapiens, UniProt P00439, R408W)
- Construct: expressed in transfected cells
- Sequence (P00439 1-452 R408W): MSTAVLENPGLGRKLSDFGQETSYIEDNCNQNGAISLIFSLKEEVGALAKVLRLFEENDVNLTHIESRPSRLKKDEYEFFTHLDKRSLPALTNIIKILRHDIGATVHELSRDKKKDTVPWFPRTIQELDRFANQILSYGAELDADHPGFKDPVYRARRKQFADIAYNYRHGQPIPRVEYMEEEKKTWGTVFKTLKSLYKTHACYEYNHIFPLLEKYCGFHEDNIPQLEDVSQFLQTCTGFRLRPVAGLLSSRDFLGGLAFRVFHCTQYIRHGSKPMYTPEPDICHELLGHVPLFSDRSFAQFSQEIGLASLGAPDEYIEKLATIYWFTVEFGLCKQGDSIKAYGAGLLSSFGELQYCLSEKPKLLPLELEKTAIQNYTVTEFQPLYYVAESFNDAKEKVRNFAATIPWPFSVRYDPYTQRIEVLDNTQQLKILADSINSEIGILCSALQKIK
- METHOD_NOTES: Cell Based Phenylalanine Flux Assay;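 further: after compound treatment, cells received sepiapterin plus isotope-labelled Phenylalanine for 4 hours, then labelled Tyrosine in the medium was quantified, 10-point 2-fold dilution series run in duplicate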
- EXPERIMENTAL_CONDITIONS: A375 cells expressing R408W PAH; 24 hrs with compound, then 20 µM sepiapterin and 800 µM 13C9,15N-Phenylalanine for 4 hours; 13C-Tyrosine by LC-MS; average where tested multiple times; read-out: AC50
RESULT_TYPE: AC50

Below are worked cases with known answers.
CC(C)(O)c1ncc(C(=O)N2CCc3[nH]cnc3C2c2cc3ccccn3n2)o1 (stereo not drawn) ... 1 to 5 µM
CC(C)(O)c1nnc(C(=O)N2CCc3[nH]cnc3C2c2cc3ccc(F)cn3n2)o1 (stereo not drawn) ... 1 to 5 µM
O=C(c1cnc(-c2ccccn2)o1)N1CCc2[nH]cnc2C1c1cc2ccccn2n1 (stereo not drawn) ... > 5 µM
O=C(c1cnco1)N1CCc2[nH]cnc2[C@H]1c1cc2ccc(F)cn2n1 (single isomer, unassigned) ... 1 to 5 µM
Cc1cccn2nc(C3c4nc[nH]c4CCN3C(=O)c3cc(C(C)(C)C)nn3C)cc12 (stereo not drawn) ... > 5 µM
Fc1cccc2cc(C3c4nc[nH]c4CCN3c3nnc(C(F)(F)F)o3)nn12 (stereo not drawn) ... 1 to 5 µM
Cc1cccn2nc(C3c4nc[nH]c4CCN3C(=O)c3ccnn3C(F)F)cc12 (stereo not drawn) ... 1 to 5 µM
CC(C)c1nnc(C(=O)N2CCc3[nH]cnc3C2c2cc3cccc(C(F)(F)F)n3n2)o1 (stereo not drawn) ... 1 to 5 µM

Next compound, AC50 to be filled in.
Incoming: Endpoint output: AC50 of CC(C)c1nnc(C(=O)N2CCc3[nH]cnc3C2c2cc3c(C(F)F)cccn3n2)o1 (stereo not drawn) . Value?
Outgoing: > 5 µM
